- Assay remarks: Rifampin (strong CYP3A inducer) DDI study, plasma pharmacokinetics
- Type: in vivo, human
- Experimental setup: both sexes, human, plasma, po, ripretinib 100 mg single oral dose + rifampin 600 mg QD, fasting, healthy participants (N = 21); read-out: AUC0–∞, geometric mean (CV%)
Measured parameter: AUC(0-inf) (ng·h/mL)
// units = ng·h/mL; emit number, no label

Request: Recall and state the measured AUC(0-inf) for CCn1c(=O)c(-c2cc(NC(=O)Nc3ccccc3)c(F)cc2Br)cc2cnc(NC)cc21 .
Result: 2270

----------
- Assay remarks: Pantoprazole (proton pump inhibitor) DDI study, plasma pharmacokinetics
- Assay type: in vivo, human
- Experimental setup: both sexes, human, plasma, po, 50 mg, ripretinib 50 mg single oral dose alone, fasting, healthy participants (pantoprazole study, N = 23); read-out: AUC0–t, geometric mean (CV%)
Measured parameter: AUC(0-t)

Request: Recall and state the measured AUC(0-t) for CCn1c(=O)c(-c2cc(NC(=O)Nc3ccccc3)c(F)cc2Br)cc2cnc(NC)cc21 [Ripretinib] .
Result: 3610 ng·h/mL
